Target: MAGE-A1 target antigen peptide … presented by HLA-A*02:01 on cells (human)
Assay: cell-based or functional assay
Set-up: unit not given beside the values
Threshold 400: EC50 Enhancement Factor strictly smaller gives T, otherwise F.

Field: example entries. Status: answers known.
ht27M1387 (TCR, V domains shown) Valpha: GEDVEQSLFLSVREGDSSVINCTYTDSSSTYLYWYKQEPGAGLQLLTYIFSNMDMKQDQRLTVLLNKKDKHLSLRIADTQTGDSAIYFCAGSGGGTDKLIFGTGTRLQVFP Vbeta: GAVVSQHPSWVICKSGTSVKIECRSLDFPIERMFWYRQFPKQSLMLMATSNEGSKATYEQGVEKDKFLINHASLTLSTLTVTSAHPEDSSFYICSAREPGQGPYEQYFGPGTRLTVT; T
ht27M1457 (TCR, V domains shown) Valpha: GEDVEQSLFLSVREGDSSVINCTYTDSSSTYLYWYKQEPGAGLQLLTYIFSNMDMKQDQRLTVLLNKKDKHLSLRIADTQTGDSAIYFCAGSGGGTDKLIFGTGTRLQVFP Vbeta: GAVVSQHPSWVICKSGTSVKIECRSLDFQATTMFWYRQFPKQSLMLMATTDYGSKATYEQGVEKDKFLINHASLTLSTLTVTSAHPEDSSFYICSAREPGQGPYEQYFGPGTRLTVT; T
ht27M1010 (TCR, V domains shown) Valpha: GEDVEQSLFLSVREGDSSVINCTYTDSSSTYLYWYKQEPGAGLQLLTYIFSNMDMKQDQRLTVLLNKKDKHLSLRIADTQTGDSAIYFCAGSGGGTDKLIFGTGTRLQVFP Vbeta: GAVVSQHPSWVICKSGTSVKIECRSLDFQATTMFWYRQFPKQSLMLMATSDYQTCVTYEQGVEKDKFLINHASLTLSTLTVTSAHPEDSSFYICSAREPGQGPLEQYFGPGTRLTVT; F

Input line: Does this binder meet the criterion EC50 Enhancement Factor < 400? ht27M1290 (TCR, V domains shown) Valpha: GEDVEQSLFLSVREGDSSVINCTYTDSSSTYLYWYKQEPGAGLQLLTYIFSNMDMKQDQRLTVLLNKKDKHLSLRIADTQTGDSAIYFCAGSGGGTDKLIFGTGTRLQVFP Vbeta: GAVVSQHPSWVICKSGTSVKIECRSLDFQATTMFWYRQFPKQSLMLMATSNEGSKATYEQGVEKDKFLINHASLTLSTLTVTSAHPEDSSFYICSARVNDGTYEQYFGPGTRLTVT
Output line: F

Input line: Does this binder meet the criterion EC50 Enhancement Factor < 400? ht27M1019 (TCR, V domains shown) Valpha: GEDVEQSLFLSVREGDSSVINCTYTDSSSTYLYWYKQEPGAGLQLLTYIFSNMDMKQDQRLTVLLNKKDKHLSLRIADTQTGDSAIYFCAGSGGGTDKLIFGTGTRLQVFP Vbeta: GAVVSQHPSWVICKSGTSVKIECRSLDFQATTMFWYRQFPKQSLMLMATSDYQTCVTYEQGVEKDKFLINHASLTLSTLTVTSAHPEDSSFYICSAREPGSGPFEQYFGPGTRLTVT
Output line: F

The origin of these recorded values is patent EP4534554A1.
